target: mushroom tyrosinase; construct: gene PPO3; PDB 2Y9X used only for docking; experiment: L-dopachrome formation, absorbance at […] nm; type: biochemical, Agaricus bisporus; conditions: L-DOPA as substrate (diphenolase); 0.1 M phosphate buffer, room temperature, 30 min
Property: IC50 Values (mg/mL) / L-DOPA as the Substrate; scope: individual molecules
reported.metric: IC50 Values (mg/mL) / L-DOPA as the Substrate

| molecule | tested.target | value.observed |
| --- | --- | --- |
| O=C(/C=C/c1ccc(O)c(O)c1)O[C@H](Cc1ccc(O)c(O)c1)C(=O)O | mushroom tyrosinase | 3.62 ± 0.08 mg/mL |
| O=C(O)/C=C/c1ccccc1O | mushroom tyrosinase | 4.19 ± 0.15 mg/mL |
| COc1cc(/C=C/C(=O)O)ccc1O | mushroom tyrosinase | 3.93 ± 0.09 mg/mL |
| OC[C@H]1O[C@@H](Oc2ccc(O)cc2)[C@H](O)[C@@H](O)[C@@H]1O [Arbutin, reference compound] | mushroom tyrosinase | 3.44 ± 0.04 mg/mL |
| Oc1cc(O)c2c(c1)O[C@H](c1ccc(O)c(O)c1)[C@@H](O)C2 | mushroom tyrosinase | 6.42 ± 0.45 mg/mL |

These measurements were taken from paper PMC11642236.
